All figures here come from patent US8759500B2.

- assay.method.text: Further oral pharmacokinetic study in female Balb/c mice, 5, 10 and 20 mg/kg
- test.settings: mouse, plasma, 20 mg/kg, Tmax, Mean, 20 mg/kg single oral dose

| molecule | Tmax (h) |
| --- | --- |
| CC[C@H]1OC(=O)[C@@](C)(F)C(=O)[C@H](C)[C@@H](O[C@@H]2O[C@H](C)C[C@H](N(C)C)[C@H]2O)[C@](C)(OC)C[C@@H](C)C(=O)[C@H](C)[C@H]2N(CCCCn3cc(-c4cccc(N)c4)nn3)C(=O)O[C@]12C [Form II, solithromycin] | 1.1 |

* * *

- assay.method.text: in vivo
- test.settings: male, Balb/c, mouse, po, 20 mg/kg
experimental.readout: concentration at 0.5 h

| compound | experimental.readout | result |
| --- | --- | --- |
| CC[C@H]1OC(=O)[C@@](C)(F)C(=O)[C@H](C)[C@@H](O[C@@H]2O[C@H](C)C[C@H](N(C)C)[C@H]2O)[C@](C)(OC)C[C@@H](C)C(=O)[C@H](C)[C@H]2N(CCCCn3cc(-c4cccc(N)c4)nn3)C(=O)O[C@]12C [Form I, solithromycin] | concentration at 0.5 h | 7700 ng/mL |

* * *

- assay.method.text: in vivo
- test.settings: female, Balb/c, mouse, po, 20 mg/kg, Cmax

| compound | Cmax [ng/mL] |
| --- | --- |
| CC[C@H]1OC(=O)[C@@](C)(F)C(=O)[C@H](C)[C@@H](O[C@@H]2O[C@H](C)C[C@H](N(C)C)[C@H]2O)[C@](C)(OC)C[C@@H](C)C(=O)[C@H](C)[C@H]2N(CCCCn3cc(-c4cccc(N)c4)nn3)C(=O)O[C@]12C [Form I, solithromycin] | 5910 |

* * *

- assay.method.text: Oral pharmacokinetics in Balb/c mice, single dose 20 or 100 mg/kg
- test.settings: male, Balb/c, mouse, plasma, po, 20 mg/kg

| compound | Tmax, min |
| --- | --- |
| CC[C@H]1OC(=O)[C@@](C)(F)C(=O)[C@H](C)[C@@H](O[C@@H]2O[C@H](C)C[C@H](N(C)C)[C@H]2O)[C@](C)(OC)C[C@@H](C)C(=O)[C@H](C)[C@H]2N(CCCCn3cc(-c4cccc(N)c4)nn3)C(=O)O[C@]12C [Form II, solithromycin] | 30 |

* * *

- assay.method.text: physchem
- test.settings: 26 °C, pH 9.2, aqueous buffer, thermodynamic from solid

| compound | solubility at 6 h [µg/mL] |
| --- | --- |
| CC[C@H]1OC(=O)[C@@](C)(F)C(=O)[C@H](C)[C@@H](O[C@@H]2O[C@H](C)C[C@H](N(C)C)[C@H]2O)[C@](C)(OC)C[C@@H](C)C(=O)[C@H](C)[C@H]2N(CCCCn3cc(-c4cccc(N)c4)nn3)C(=O)O[C@]12C [Form I, solithromycin] | 1750 |

* * *

- assay.method.text: Mean intrinsic dissolution studies
- Type: physicochemical
- test.settings: Phosphate buffer, pH 6.8

| compound | Mean intrinsic dissolution rate, mg/min/cm^2 |
| --- | --- |
| CC[C@H]1OC(=O)[C@@](C)(F)C(=O)[C@H](C)[C@@H](O[C@@H]2O[C@H](C)C[C@H](N(C)C)[C@H]2O)[C@](C)(OC)C[C@@H](C)C(=O)[C@H](C)[C@H]2N(CCCCn3cc(-c4cccc(N)c4)nn3)C(=O)O[C@]12C [Form I Batch A] | 0.004 |
| CC[C@H]1OC(=O)[C@@](C)(F)C(=O)[C@H](C)[C@@H](O[C@@H]2O[C@H](C)C[C@H](N(C)C)[C@H]2O)[C@](C)(OC)C[C@@H](C)C(=O)[C@H](C)[C@H]2N(CCCCn3cc(-c4cccc(N)c4)nn3)C(=O)O[C@]12C [Form II, solithromycin] | 0.01 |
| CC[C@H]1OC(=O)[C@@](C)(F)C(=O)[C@H](C)[C@@H](O[C@@H]2O[C@H](C)C[C@H](N(C)C)[C@H]2O)[C@](C)(OC)C[C@@H](C)C(=O)[C@H](C)[C@H]2N(CCCCn3cc(-c4cccc(N)c4)nn3)C(=O)O[C@]12C [Form I Batch B] | 0.03 |
| CC[C@H]1OC(=O)[C@@](C)(F)C(=O)[C@H](C)[C@@H](O[C@@H]2O[C@H](C)C[C@H](N(C)C)[C@H]2O)[C@@](C)(OC)C[C@@H](C)C(=O)[C@H](C)[C@H]2N(CCCCn3cc(-c4cccc(N)c4)nn3)C(=O)O[C@]12C [Form I Batch C] | 0.02 |
